TARGET_OR_TEST_SYSTEM: human histamine H3 receptor (Homo sapiens, UniProt Q9Y5N1)
Construct: One microgram of supercoiled H3 receptor cDNA was added to the cells and mixed; expressed in transfected cells; membranes prepared from cell pellets
Sequence (Q9Y5N1 whole entry): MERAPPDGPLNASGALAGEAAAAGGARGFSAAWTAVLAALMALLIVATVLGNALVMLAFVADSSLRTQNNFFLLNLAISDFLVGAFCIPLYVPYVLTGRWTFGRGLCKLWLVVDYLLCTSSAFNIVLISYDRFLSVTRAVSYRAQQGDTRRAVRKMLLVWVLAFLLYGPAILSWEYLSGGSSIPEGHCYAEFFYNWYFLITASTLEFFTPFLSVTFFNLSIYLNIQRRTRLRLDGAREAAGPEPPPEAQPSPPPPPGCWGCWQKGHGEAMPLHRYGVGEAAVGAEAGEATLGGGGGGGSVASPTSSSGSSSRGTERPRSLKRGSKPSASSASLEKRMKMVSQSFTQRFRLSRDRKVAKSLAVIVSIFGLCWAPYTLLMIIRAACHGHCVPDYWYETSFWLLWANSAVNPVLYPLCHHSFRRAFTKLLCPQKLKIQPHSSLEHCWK
PROCEDURE_DETAILS: {3H}-N-methylhistamine binding
Structures can show the parent of a compound that is named as a salt.
MEASURED_QUANTITY: Ki

Query string: # value lookup — system human histamine H3 receptor (Homo sapiens, UniProt Q9Y5N1), readout Ki, item CCC(CC)N1CCN(C(=O)c2ccc(CN(C)C)cc2)CC1 [Example 46, dihydrochloride]
Result string: 2 nM

Query string: Form entry - test system: human histamine H3 receptor (Homo sapiens, UniProt Q9Y5N1); read-out: Ki; molecule: CCCCN1CCN(C(=O)c2ccc(CN3CCCC(C(F)(F)F)C3)cc2)CC1 (stereo not drawn) [Example 36]
Result string: 12 nM

Query string: Please provide the recorded Ki for CN1CCN(C(=O)c2ccc(CN3CCOCC3)cc2)CC1 [Example 43, dihydrochloride] , tested on human histamine H3 receptor (Homo sapiens, UniProt Q9Y5N1).
Result string: 22 nM

Query string: Param readout= Ki; system= human histamine H3 receptor (Homo sapiens, UniProt Q9Y5N1); entry= CC(C)N1CCN(C(=O)c2ccc(CN3CCCC(C(F)(F)F)C3)cc2)CC1 (stereo not drawn) [Example 56, dihydrochloride] ; returns value.
Result string: 1 nM

Query string: Field: Ki (human histamine H3 receptor (Homo sapiens, UniProt Q9Y5N1)). Entry: O=C(c1ccc(CN2CCCCC2)cc1)N1CCN(C2CCCCC2)CC1 [Example 66]
Result string: 1 nM

Query string: // map CCCN(CCOC)Cc1ccc(C(=O)N2CCN(C(C)C)CC2)cc1 [Example 68] to recorded Ki (system: human histamine H3 receptor (Homo sapiens, UniProt Q9Y5N1))
Result string: 2 nM

Query string: Notebook entry, human histamine H3 receptor (Homo sapiens, UniProt Q9Y5N1) assay: Ki of CC(C)N1CCN(C(=O)c2ccc(CNc3ccc(Cl)cn3)cc2)CC1 [Example 53, dihydrochloride] = ?
Result string: 30 nM

Query string: Hi! What's the reported Ki for CCC(CC)N1CCN(C(=O)c2ccc(CN3CCC4CCCCC4C3)cc2)CC1 (stereo not drawn) [Example 22] on human histamine H3 receptor (Homo sapiens, UniProt Q9Y5N1)?
Result string: 2 nM

Query string: # query: Ki | item CCC(C)N1CCN(C(=O)c2ccc(CNc3ccccc3)cc2)CC1 (stereo not drawn) [Example 29] | system: human histamine H3 receptor (Homo sapiens, UniProt Q9Y5N1)
Result string: 38 nM

Query string: Short answer please: Ki, human histamine H3 receptor (Homo sapiens, UniProt Q9Y5N1), entry CC(C)N1CCN(C(=O)c2ccc(CNc3ccc(C(F)(F)F)cc3)cc2)CC1 [Example 34]
Result string: 68 nM

Query string: Value wanted: Ki (human histamine H3 receptor (Homo sapiens, UniProt Q9Y5N1)) of entry CCC(CC)N1CCN(C(=O)c2ccc(CN3CCCCCC3)cc2)CC1 [Example 21]
Result string: 2 nM

Query string: Missing value: Ki, human histamine H3 receptor (Homo sapiens, UniProt Q9Y5N1), entry CC(C)N1CCN(C(=O)c2cccc(CN3CCOCC3)c2)CC1 [Example 38] . Fill in?
Result string: 180 nM

Query string: Item: CC(C)N1CCN(C(=O)c2cccc(CN3CCCCC3)c2)CC1 [Example 39] Test system: human histamine H3 receptor (Homo sapiens, UniProt Q9Y5N1) Read-out: Ki Value: ?
Result string: 35 nM

Query string: human histamine H3 receptor (Homo sapiens, UniProt Q9Y5N1) / Ki / CCCCN1CCN(C(=O)c2ccc(CNc3ccc(C(F)(F)F)cc3)cc2)CC1 [Example 31] : value?
Result string: 630 nM

Query string: Record CCC(CC)N1CCN(C(=O)c2ccc(CN3CCCC(C(F)(F)F)C3)cc2)CC1 (stereo not drawn) [Example 49, dihydrochloride] : what is its Ki with human histamine H3 receptor (Homo sapiens, UniProt Q9Y5N1)?
Result string: 4 nM

Query string: Request - read-out Ki | tested on human histamine H3 receptor (Homo sapiens, UniProt Q9Y5N1) | molecule COCCNCc1ccc(C(=O)N2CCN(C(C)C)CC2)cc1 [Example 70]
Result string: 2 nM

Query string: Test system human histamine H3 receptor (Homo sapiens, UniProt Q9Y5N1); read-out Ki; what value for CC(C)N1CCN(C(=O)c2ccc(CNc3ccc(C(F)(F)F)nc3)cc2)CC1 [Example 52, dihydrochloride] ?
Result string: 14 nM

Query string: // map CCC(CC)N1CCN(C(=O)c2ccc(CNc3ccccc3)cc2)CC1 [Example 45, dihydrochloride] to recorded Ki (system: human histamine H3 receptor (Homo sapiens, UniProt Q9Y5N1))
Result string: 54 nM
